Hey, just so you know, these numbers are from patent US20170298113A1.

Target: human somatostatin receptor subtype SSTR5 (human) (UniProt P35346)
Sequence (P35346 whole entry): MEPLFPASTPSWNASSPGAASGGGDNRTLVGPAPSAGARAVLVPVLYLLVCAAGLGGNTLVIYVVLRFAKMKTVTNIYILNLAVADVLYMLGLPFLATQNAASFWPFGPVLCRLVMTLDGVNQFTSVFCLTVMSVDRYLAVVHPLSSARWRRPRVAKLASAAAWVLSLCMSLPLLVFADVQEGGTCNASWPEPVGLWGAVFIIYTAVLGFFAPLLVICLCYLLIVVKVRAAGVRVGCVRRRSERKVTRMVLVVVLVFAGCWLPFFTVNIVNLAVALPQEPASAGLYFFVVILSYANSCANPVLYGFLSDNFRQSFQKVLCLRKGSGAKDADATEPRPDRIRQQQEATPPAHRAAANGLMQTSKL
Assay: FACS, transfected HEK-293 cells
*1 amine or outer side, *2 acyl side, *3 side chain or, on linkers, in order; H or OH if unused. Bridges are numbered along the chain shown (N, C = ends). Primed or numbered codes have the meaning given here. [ ]: non-standard residue; d: D form. N(2-mercaptoethyl)Gly = O=C(CN(CCS[*:3])[*:1])[*:2]; FITC′ = fluorescein isothiocyanate; Aib = CC(C)(N)C(=O)O; GABA = NCCCC(=O)O
Label YES when Relative binding affinity is strictly below 8%; otherwise label NO.

Example results:
XCFWXKTFX (FITC-GABA-DPhe-Cys*-Phe-Trp-DTrp-Lys-Thr-Phe-GlyS2*-NH2 (* = S-S bond; GlyS2 = N-thioethyl glycine; FITC-GABA on the N-terminal amine; C-terminal amide)) [Compound 1] = NO
XCFWXXTFX (FITC-GABA-DPhe-Cys*-Phe-Trp-DTrp-LysAc-Thr-Phe-GlyS2*-NH2 (* = S-S bond; LysAc = acetyllysine; GlyS2 = N-thioethyl glycine; C-terminal amide)) [Compound 14] = YES
{FITC′-GABA}-[dF]CYW[dW]KTF[N(2-mercaptoethyl)Gly]-NH2 (disulfide 2-9) [Compound 4] = NO

Could you please tell me whether Relative binding affinity recorded for XCFWXXTFX (FITC-GABA-DPhe-Cys*-Phe-Trp-DTrp-Orn-Thr-Phe-GlyS2*-NH2 (* = S-S bond; GlyS2 = N-thioethyl glycine; Orn = ornithine; C-terminal amide)) [Compound 3] is less than 8%? NO

is_below(Relative binding affinity, 8%) for XXFWXKTFX (FITC-GABA-DPhe-HCys*-Phe-Trp-DTrp-Lys-Thr-Phe-GlyS2*-NH2 (* = S-S bond; HCys = homocysteine; GlyS2 = N-thioethyl glycine; C-terminal amide)) [Compound 11] ? NO

Consider {FITC′-GABA}-[dF]CRFF[dW]KTF[N(2-mercaptoethyl)Gly]-NH2 (disulfide 2-10) [Compound 8] . Does its Relative binding affinity lie strictly below 8%? NO

Quick check: Relative binding affinity of {FITC′-GABA}-[dF]RCF[dW]KTF[N(2-mercaptoethyl)Gly]-NH2 (disulfide 3-9) [Compound 2] under 8%? YES

State whether 8% exceeds Relative binding affinity recorded for {FITC′-GABA}-[dF]CFW[dW][Aib]TF[N(2-mercaptoethyl)Gly]-NH2 (disulfide 2-9) [Compound 13] . NO

Strictly below 8%: is that where Relative binding affinity of {FITC′-GABA}-[dF]RCY[dW]KTF[N(2-mercaptoethyl)Gly]-NH2 (disulfide 3-9) [Compound 6] sits? YES
